Each entry below carries its recorded pIC50.
Target: Genome polyprotein (dengue virus type 2, UniProt P29990)
Sequence (P29990 1346-1475 limits assumed): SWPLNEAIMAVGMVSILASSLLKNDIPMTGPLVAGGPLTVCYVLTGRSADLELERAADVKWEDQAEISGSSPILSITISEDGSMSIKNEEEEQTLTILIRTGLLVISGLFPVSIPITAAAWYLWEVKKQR
Sequence (P29990 1476-2093 limits assumed): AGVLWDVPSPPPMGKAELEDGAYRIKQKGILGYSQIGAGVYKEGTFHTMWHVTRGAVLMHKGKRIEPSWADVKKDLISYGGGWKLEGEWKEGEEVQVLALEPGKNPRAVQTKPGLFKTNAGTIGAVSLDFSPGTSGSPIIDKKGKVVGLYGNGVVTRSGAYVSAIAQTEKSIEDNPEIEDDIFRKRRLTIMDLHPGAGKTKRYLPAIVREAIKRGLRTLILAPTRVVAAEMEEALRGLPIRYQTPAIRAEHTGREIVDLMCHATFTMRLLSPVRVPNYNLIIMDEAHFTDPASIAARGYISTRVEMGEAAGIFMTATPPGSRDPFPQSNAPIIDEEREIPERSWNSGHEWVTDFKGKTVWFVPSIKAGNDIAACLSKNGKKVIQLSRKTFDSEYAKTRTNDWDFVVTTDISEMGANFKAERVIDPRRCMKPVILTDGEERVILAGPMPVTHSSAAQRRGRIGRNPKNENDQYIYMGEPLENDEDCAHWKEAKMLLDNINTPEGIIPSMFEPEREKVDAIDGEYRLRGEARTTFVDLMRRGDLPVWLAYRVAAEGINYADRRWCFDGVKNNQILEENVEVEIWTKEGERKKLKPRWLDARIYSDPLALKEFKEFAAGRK
Assay type: functional, Thailand/16681/1984
pIC50: −log10 of the molar value.
Measurement type: pIC50

[[record]]
chemical_smiles = "Clc1ccc2[nH]cc(Cc3ccc4c(c3)CNC4)c2c1"
data_value = "< 4.00"

[[record]]
chemical_smiles = "Cn1cc2c(C(=O)Nc3ccc4c(c3)CNC4)cc(F)cc2n1"
data_value = "< 4.00"

[[record]]
chemical_smiles = "Cc1c(F)cc(C(=O)Nc2cccc(CN)c2)c(F)c1NC(=O)OCc1ccccc1"
data_value = 4.00

[[record]]
chemical_smiles = "Cc1c(C(=O)NCc2ccc(CN)cc2)cc(C2CC2)n1C"
data_value = "< 4.00"

[[record]]
chemical_smiles = "Cc1c(C(=O)Nc2ccc3c(c2)C(=O)NC3)cc(C2CC2)n1C"
data_value = "< 4.00"

[[record]]
chemical_smiles = "O=S(=O)(Nc1cccc(-c2nnn[nH]2)c1)c1cc(Cl)cc(C(F)(F)F)c1"
data_value = "< 4.00"


----------
Each entry below carries its recorded IC50.
Biological target: Genome polyprotein (dengue virus type 2)
Assay type: functional, Thailand/16681/1984
Measurement type: IC50

[[record]]
chemical_smiles = "O=C1C[C@H]2CN(C(=O)Nc3ccc4c(c3)CNC4)CC[C@H]2N1"
data_value = "> 99.5 µM"

[[record]]
chemical_smiles = "Cc1ocnc1COc1ccc(S(=O)(=O)Nc2ccc(Cl)cc2C(=O)O)cc1"
data_value = "> 99.5 µM"

[[record]]
chemical_smiles = "C[C@H]1CC2(CN1C(=O)Nc1ccc3c(c1)CNC3)CC(F)(F)C2"
data_value = "> 99.5 µM"

[[record]]
chemical_smiles = "O=C(Nc1ccc2c(c1)CNC2)c1nc(Cl)nc2[nH]ccc12"
data_value = "> 99.5 µM"

[[record]]
chemical_smiles = "NCc1cccc(NC(=O)[C@@H](NC(=O)OCc2ccccc2)C2CCN(S(=O)(=O)C3CCCC3)CC2)c1"
data_value = "> 99.5 µM"

[[record]]
chemical_smiles = "Cc1c(CN)cccc1NS(=O)(=O)c1ccc(Oc2ccccc2Cl)cc1"
data_value = "> 99.5 µM"

[[record]]
chemical_smiles = "CS(=O)(=O)c1cccc(CNC(=O)[C@@H](NC(=O)OCc2ccccc2)c2ccc(OCc3ccccc3)cc2)c1"
data_value = "> 99.5 µM"

[[record]]
chemical_smiles = "NCCCc1ccccc1NC(=O)c1cc(Cl)cc(NC(=O)OCc2ccccc2)c1"
data_value = "> 99.5 µM"

[[record]]
chemical_smiles = "Cc1c(C(=O)Nc2cc(-c3cccnc3)ccn2)cc(C2CCCC2)n1C"
data_value = "> 99.5 µM"

[[record]]
chemical_smiles = "CNC(=O)[C@H](Nc1cccc(C(=O)O)c1)c1cc(Cl)cc2[nH]ncc12"
data_value = "> 99.5 µM"

[[record]]
chemical_smiles = "CS(=O)(=O)N1CCC([C@@H](NC(=O)OCc2ccccc2)C(=O)Nc2cccc(CN)c2)CC1"
data_value = "> 99.5 µM"

[[record]]
chemical_smiles = "CC1(c2nc(C(=O)Nc3cc(-c4cccnc4)ccn3)no2)CC1"
data_value = "> 99.5 µM"

[[record]]
chemical_smiles = "O=C(Nc1cc(Cl)cc(C(=O)NC[C@H]2CC3(CNC3)CO2)c1)OCc1ccccc1"
data_value = "> 99.5 µM"

[[record]]
chemical_smiles = "COc1ccc(Cl)cc1[C@H](Nc1ccc2c(c1)CNC2)C(=O)NCC(F)F"
data_value = "> 99.5 µM"

[[record]]
chemical_smiles = "COC(=O)[C@H]1NCc2cc(NC(=O)c3cc(F)cc4[nH]ncc34)ccc21"
data_value = "> 99.5 µM"

[[record]]
chemical_smiles = "O=C(O)c1cc(Cl)ccc1S(=O)(=O)Nc1ccc(S(=O)(=O)N2CCCCC2)cc1"
data_value = "> 99.5 µM"

[[record]]
chemical_smiles = "NCc1ccc(/C=C/C(=O)C(=O)N2CCOCC2)cc1"
data_value = "> 99.5 µM"

[[record]]
chemical_smiles = "O=C(Nc1ccc2c(c1)CNC2)c1cncc(N2CCOCC2)c1"
data_value = "> 99.5 µM"

[[record]]
chemical_smiles = "NCc1cccc(NC(=O)[C@@H](NC(=O)OCc2ccccc2)c2c(F)cccc2F)c1"
data_value = "> 99.5 µM"

[[record]]
chemical_smiles = "CN1CCN(Cc2cccc(CNC(=O)[C@@H](NC(=O)OCc3ccccc3)c3ccc(OCc4ccccc4)cc3)c2)CC1"
data_value = "> 99.5 µM"

[[record]]
chemical_smiles = "Cn1ncnc1Sc1nc(C2CCCC2)ns1"
data_value = "> 99.5 µM"

